system: HT-1376; assay: cells; assay type: functional, cell-based; details: Homo sapiens
Description: SANGER: Inhibition of human HT-1376 cell growth in a cell viability assay.
READOUT_NAME: IC50

{"SMILES_REPRESENTATION": "Cc1ccc(C(=O)Nc2ccc(CN3CCN(C)CC3)c(C(F)(F)F)c2)cc1C#Cc1cnc2cccnn12", "OBSERVED_VALUE": "> 0.512 µM"}
{"SMILES_REPRESENTATION": "OC[C@H](Cc1ccccc1)Nc1nc(Oc2ccc3c(c2)CCC3)nc2c1ncn2Cc1ccc(-c2ccccc2)cc1", "OBSERVED_VALUE": "> 10.2 µM"}
{"SMILES_REPRESENTATION": "Cc1ccc(-n2nc(C(C)(C)C)cc2NC(=O)Nc2ccc(OCCN3CCOCC3)c3ccccc23)cc1", "OBSERVED_VALUE": "> 10 µM"}
{"SMILES_REPRESENTATION": "CC1(C)CCC(c2ccc(Cl)cc2)=C(CN2CCN(c3ccc(C(=O)NS(=O)(=O)c4ccc(N[C@H](CCN5CCOCC5)CSc5ccccc5)c(S(=O)(=O)C(F)(F)F)c4)cc3)CC2)C1", "OBSERVED_VALUE": "> 2 µM"}
{"SMILES_REPRESENTATION": "CN(NC(=O)CC(=O)NN(C)C(=S)c1ccccc1)C(=S)c1ccccc1", "OBSERVED_VALUE": "> 0.2 µM"}

* * *

test system: HuCCT-1; experiment: cells; format: functional, cell-based, HuCCT1; details: Homo sapiens;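 also: growth inhibition of HuCCT-1 cells, read out by a cell viability assay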
Description: SANGER: Inhibition of human HuCCT1 cell growth in a cell viability assay.

{"SMILES_REPRESENTATION": "CC1(C)CCC(c2ccc(Cl)cc2)=C(CN2CCN(c3ccc(C(=O)NS(=O)(=O)c4ccc(N[C@H](CCN5CCOCC5)CSc5ccccc5)c(S(=O)(=O)C(F)(F)F)c4)cc3)CC2)C1", "TEST_SYSTEM": "HuCCT-1", "IC50": "> 2 µM"}
{"SMILES_REPRESENTATION": "COC(=O)[C@H](CCSC)NC(=O)c1ccc(NC[C@@H](N)CS)cc1-c1ccccc1", "TEST_SYSTEM": "HuCCT-1", "IC50": "> 1.02 µM"}
{"SMILES_REPRESENTATION": "CS(=O)(=O)N1CCN(Cc2cc3nc(-c4cccc5[nH]ncc45)nc(N4CCOCC4)c3s2)CC1", "TEST_SYSTEM": "HuCCT-1", "IC50": "> 4 µM"}
{"SMILES_REPRESENTATION": "O=S(=O)(O)c1ccc2cc(/N=N/c3cc(S(=O)(=O)O)c4cccnc4c3O)ccc2c1", "TEST_SYSTEM": "HuCCT-1", "IC50": "> 16 µM"}
{"SMILES_REPRESENTATION": "Cc1ccc(-n2nc(C(C)(C)C)cc2NC(=O)Nc2ccc(OCCN3CCOCC3)c3ccccc23)cc1", "TEST_SYSTEM": "HuCCT-1", "IC50": "> 10 µM"}

* * *

pIC50 by entry:
test system: KM12; assay: cells; assay type: functional, cell-based, Homo sapiens; settings: Homo sapiens, KM12;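 also: KM12 cell growth inhibition, read out with a cell viability assay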
Description: SANGER: Inhibition of human KM12 cell growth in a cell viability assay.
pIC50: −log10 of the molar value.
READOUT_NAME: pIC50

{"SMILES_REPRESENTATION": "NC(=O)Nc1cc(-c2cccc(F)c2)sc1C(=O)N[C@H]1CCCNC1", "CENSORING_SIGN": "=", "OBSERVED_VALUE": 7.29}
{"SMILES_REPRESENTATION": "Cc1ccc(NC(=O)c2ccc(CN3CCN(C)CC3)cc2)cc1Nc1nccc(-c2cccnc2)n1", "CENSORING_SIGN": "<", "OBSERVED_VALUE": 5.70}
{"SMILES_REPRESENTATION": "OC[C@H](Cc1ccccc1)Nc1nc(Oc2ccc3c(c2)CCC3)nc2c1ncn2Cc1ccc(-c2ccccc2)cc1", "CENSORING_SIGN": "<", "OBSERVED_VALUE": 4.99}
{"SMILES_REPRESENTATION": "C/C(=C\\c1csc(C)n1)[C@@H]1C[C@@H]2O[C@]2(C)CCC[C@H](C)[C@H](O)[C@@H](C)C(=O)C(C)(C)[C@@H](O)CC(=O)O1", "CENSORING_SIGN": "=", "OBSERVED_VALUE": 8.65}
{"SMILES_REPRESENTATION": "COc1ccc(N(C(=O)Oc2c(C)cccc2C)c2ccnc(Nc3ccc(N4CCN(C)CC4)cc3)n2)c(OC)c1", "CENSORING_SIGN": "<", "OBSERVED_VALUE": 5.29}
{"SMILES_REPRESENTATION": "CC(C)C[C@H](NC(=O)[C@H](Cc1ccccc1)NC(=O)c1cnccn1)B(O)O", "CENSORING_SIGN": "=", "OBSERVED_VALUE": 8.90}
